test: photoluminescence quantum yield (fraction); solvent given as SMILES
condition: in CCO
value-kind: photoluminescence quantum yield

Solved entries:
// field: photoluminescence quantum yield; key: Cc1cc2c(o1)c(Br)cc1c(C)cc(=O)oc12 ; value = 0.005

// field: photoluminescence quantum yield; key: CCOC(=O)c1cc(C(=O)OCC)c2cc(NC)ccc2n1 ; value = 0.47

// field: photoluminescence quantum yield; key: CC(=O)c1nc(-c2ccc(N(C)C)cc2)oc1C ; value = 0.019

// field: photoluminescence quantum yield; key: c1ccc(-c2csc(-c3ccncc3)n2)cc1 ; value = 0.048

// field: photoluminescence quantum yield; key: CC(NC(=O)OC(C)(C)C)C(=O)OCc1ccc2c3cccc4cccc(c5cccc1c52)c43 (stereo unspecified) ; value = 0.88

// field: photoluminescence quantum yield; key: CCOC(=O)c1cc(C(=O)OCC)c2ccc(O)cc2n1 ; value = 0.007

[A] CN(C)c1ccc(-c2cc[n+](C)cc2)s1
[B] CC/[NH+]=c1\cc2oc3cc(NCCC(=O)NC(CCC(=O)OC)C(=O)OC)c4ccccc4c3nc-2cc1C (stereo unspecified)
Prompt: Between A and B , whose measured photoluminescence quantum yield reads higher? Record your answer as the label of the chosen record.
Completion: B
(B: 0.48, A: 0.003)

* * *

test: photoluminescence quantum yield (fraction); solvent given as SMILES
condition: in CCOC(C)=O
value-kind: photoluminescence quantum yield

// field: photoluminescence quantum yield; key: COc1ccc2n1[B-](F)(F)[N+]1=C(SC#N)C=CC1=C2c1ccccc1 ; value = 0.04

[P] Cc1ccc(C#Cc2ccc3ccc4cccc5ccc2c3c45)cc1
[Q] CCCSc1ccc2n1[B-](F)(F)[N+]1=CC=CC1=C2c1ccccc1
Prompt: Between P and Q , whose measured photoluminescence quantum yield reads higher? Record your answer as the label of the chosen record.
Completion: P

* * *

test: photoluminescence quantum yield (fraction); solvent given as SMILES
condition: in CCCCCC
value-kind: photoluminescence quantum yield

Solved entries:
// field: photoluminescence quantum yield; key: c1ccc2c(c1)[nH]c1ncccc12 ; value = 0.31

// field: photoluminescence quantum yield; key: Cc1ccc(C2=[N+]3C(=Cc4ccc(C)n4[B-]3(F)F)c3ccccc32)[nH]1 ; value = 0.83

// field: photoluminescence quantum yield; key: N#Cc1ccc(-c2ccc3c(c2)c2cc(-c4ccc(C#N)cc4)ccc2c2c3nc(-c3ccc(N(c4ccccc4)c4ccccc4)cc3)n2-c2ccccc2)cc1 ; value = 0.9

// field: photoluminescence quantum yield; key: Cc1ccc2ccc3c(C)ccc4ccc1c2c43 ; value = 0.52

// field: photoluminescence quantum yield; key: c1ccc(-c2cc(-c3ccc4ccc5c(-c6ccnc(-c7ccccn7)c6)ccc6ccc3c4c65)ccn2)nc1 ; value = 0.6

[a] O=C1c2cccc3c(-n4c5ccccc5c5ccccc54)ccc(c23)C(=O)N1c1ccccc1
[b] CC(C)c1ccc2ccc3c(C(C)C)ccc4ccc1c2c43
[c] CC1(C)Oc2c(c3nc4ccccc4nc3c3ccccc23)CC1Br (stereo not given)
[d] F[B-]1(F)n2ccnc2-c2cccc[n+]21
Prompt: Rank the items in ascending order with respect to photoluminescence quantum yield. Returns: the labels arranged in the requested order.
Completion: d, c, b, a
(d: 0.03, c: 0.25, b: 0.45, a: 0.887)

* * *

test: photoluminescence quantum yield (fraction); solvent given as SMILES
condition: in CN(C)C=O
value-kind: photoluminescence quantum yield

Solved entries:
// field: photoluminescence quantum yield; key: CN(C)c1ccc(/C=C/C=C/c2nc3ccccc3o2)cc1 ; value = 0.007

// field: photoluminescence quantum yield; key: F[B-]1(F)n2cccc2C(c2ccc(-c3c4ccccc4c(-c4ccccc4)c4ccccc34)cc2)=C2C=CC=[N+]21 ; value = 0.002

// field: photoluminescence quantum yield; key: CCN(CC)c1ccc2cc(/C=C/C3=CC(/C=C/c4cc5ccc(N(CC)CC)cc5oc4=O)=[O+][B-](F)(F)O3)c(=O)oc2c1 ; value = 0.096

// field: photoluminescence quantum yield; key: CCn1c2ccccc2c2cc(-c3cc(-c4ccc5c(c4)c4ccccc4n5CC)nc(-c4ccc(C#N)cc4)n3)ccc21 ; value = 0.07

// field: photoluminescence quantum yield; key: CC1=CC(C)=[N+]2C1=C(c1c3ccccc3c(C)c3ccccc13)c1c(C)cc(C)n1[B-]2(F)F ; value = 0.003

[a] CCOC(=O)C(Cc1ccc(O[Si]2(Oc3ccc(CC(NC(C)=O)C(=O)OCC)cc3)n3c4c5ccccc5c3/N=C3N=C(/N=c5/c6ccccc6/c(n52)=N/C2=NC(=N\4)/c4ccccc42)c2ccccc2\3)cc1)NC(C)=O (stereo unspecified)
[b] CCN(CC)c1ccc2c(c1)oc(=O)c1c(C)nc3c(c(C)nn3-c3ccccc3)c12
[c] NNC(=O)c1ccc(/C=C/c2ccc(C(=O)NN)cc2)cc1
[d] CCCCOC(=O)c1ccccc1-c1c2ccc(=[N+](CC)CC)cc-2oc2cc(N(CC)CC)ccc12
Prompt: Rank the items in ascending order with respect to photoluminescence quantum yield. Returns: the labels arranged in the requested order.
Completion: a, c, d, b
(a: 0.11, c: 0.2, d: 0.35, b: 0.562)

[A] CC(C)(C)c1cc(C(C)(C)C)c2oc3c(c2c1)C=CN1C(=O)C2=C4c5oc6c(C(C)(C)C)cc(C(C)(C)C)cc6c5C=CN4C(=O)C2=C31
[B] S=c1[nH]nc(-c2ccc(/C=C/c3ccc(-c4n[nH]c(=S)o4)cc3)cc2)o1
Prompt: For the pair A and B , which member has the lower photoluminescence quantum yield number? Record your answer as the label of the chosen record.
Completion: B
(B: 0.33, A: 0.6)

The values you see were collected from the Deep4Chem optical property database.
